- assay.notes: Quantitative High-Throughput drug screen in 47 multiple myeloma cell lines against the NCATS MIPE library collection: MMM1_PLB cell viability assay (AID 1918976); further: nearly all actives have a fitted effect of over 35% in size
- stated.conditions: MMM1 myeloma cells viability, CellTiter-Glo, 48 h; series mostly up to 45.8 µM
Inconclusive results are not listed. Activity calls are given as the source filed them. The call rests on the fitted dose curve; in most records, active means well fitted cell-killing curve with a large enough effect; inconclusive means small, poorly fitted or top-dose-only effect, or effect the other way; inactive means no such curve, though single readings can be large or run the other way.
Permitted responses: active, inactive

Previously resolved entries follow.
* C=C1C(=O)[C@@]23C(CC[C@@H]1[C@H]2O)[C@@]12CO[C@]3(O)[C@@H](O)[C@@H]1C(C)(C)CC[C@@H]2O (some centres undefined) | active
* N[C@H](CSC(c1ccccc1)(c1ccccc1)c1ccccc1)C(=O)O | inactive
* O=c1c(-c2ccc(O)cc2)coc2cc(O)ccc12 | active
* C[C@H](NC(=O)C(=O)Nc1ccccc1C(C)(C)C)C(=O)N[C@@H](CC(=O)O)C(=O)COc1c(F)c(F)cc(F)c1F | inactive
* O=C(NCc1ccccc1)c1csc(Nc2ccncn2)n1 | active

Which result was noted for this molecule in the test: O=c1cc(N2CCOCC2)oc2c(-c3cccc4c3sc3ccccc34)cccc12
active

Which result was noted for this molecule in the test: CC(C)(C)c1cc(C(=O)O)c(NC(=O)Nc2ccc3[nH]ncc3c2)s1
inactive

Which result was noted for this molecule in the test: CCc1ccc(OCc2ccccc2C(=O)Nc2ccc3nc(C)cc(N)c3c2)cc1
active

Which result was noted for this molecule in the test: NC(=O)c1cccc(-c2cc(Nc3ccc(OC(F)(F)F)cc3)ncn2)c1
active

This collection of values is drawn from PubChem BioAssay (NCATS).
